B1: ZNF449 (parent)
chain: FQEYDTDCEVFRQRFRQFQYREAA

Variants of: B1
protocol.description: protein stability index of a GFP-peptide fusion (GPS, HEK-293T) (PSI 1-6); higher = more stable;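 note: lentivirally expressed fusions sorted by FACS into six bins by GFP to DsRed ratio, PSI derived from sequencing read proportions per bin multiplied by bin number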
test.parameters: c terminus: a fixed tail appended
endpoint.name: protein stability index
// print number alone

- variant.identifier: "C8I"
  protein stability index: 2.49
- variant.identifier: "F1Q"
  protein stability index: 2.79
- variant.identifier: "Q2R"
  protein stability index: 2.09
- variant.identifier: "A23P"
  protein stability index: 2.39
- variant.identifier: "V10T"
  protein stability index: 2.49
- variant.identifier: "Q19F"
  protein stability index: 1.87

[ask] Recorded protein stability index for `R14Q` , please?
[reply] 2.32

[ask] Recorded protein stability index for `A24K` , please?
[reply] 2.76

[ask] Recorded protein stability index for `C8K` , please?
[reply] 2.63
